# Organism: Rattus norvegicus
# Test protocol: DrugMatrix - Regimen: Daily Repeat
# Format: toxicity, organism-based, Sprague-Dawley
# Parameters: regimen Daily Repeat, gender Male, age 6-8 weeks
# Stated conditions: in vivo, po, 0 mg/kg, 120 h, tissue Plasma, route oral GAVAGE, dose level Control, time 5 day, vehicle 100 % WATER
Value kind: ASPARTATE AMINOTRANSFERASE (u/L)
Give bare numbers, in u/L.

Field: example entries. Status: answers known.
INSERT INTO results (compound, value_kind, test_result) VALUES
  ('Cc1cc(C(C)(C)C)c(O)c(C)c1CC1=NCCN1 [OXYMETAZOLINE]', 'ASPARTATE AMINOTRANSFERASE', 86),
  ('CCC1(c2ccccc2)C(=O)NC(=O)NC1=O [PHENOBARBITAL]', 'ASPARTATE AMINOTRANSFERASE', 80.83),
  ('Cc1cn([C@H]2C=C[C@@H](CO)O2)c(=O)[nH]c1=O [STAVUDINE]', 'ASPARTATE AMINOTRANSFERASE', 85.67),
  ('C1CCN2C[C@@H]3C[C@@H](CN4CCCC[C@@H]34)[C@H]2C1 [SPARTEINE]', 'ASPARTATE AMINOTRANSFERASE', 81.67),
  ('NN [HYDRAZINE]', 'ASPARTATE AMINOTRANSFERASE', 89.83);

Give ASPARTATE AMINOTRANSFERASE for all compounds that follow.
1. CCN(CC)C(=S)SSC(=S)N(CC)CC
2. C[N+](C)(C)CCOC(N)=O.[Cl-] [CARBACHOL]
3. CC(Cl)(Cl)Cl [TRICHLOROETHANE]
4. CN1C(=O)OC(C)(C)C1=O [TRIMETHADIONE]

87.67
85.67
81.67
62.33
